Experiment: Pharmacokinetics assay in mice
Type: in vivo
Conditions: mouse, po; C57 mice (female), intragastric, 2 mg/kg, plasma; read-out: Half Life T1/2 (converted)
quantity measured: half-life (h)

COc1cc(F)cc([C@@H](CO)NC(=O)[C@@H](C)N2CCc3sc(-c4ccnc(Nc5ccnn5C)n4)cc3C2=O)c1 [Example 15]	1.11
Cc1cccc([C@@H](CO)NC(=O)[C@@H](C)N2CCc3sc(-c4nc(NC5CCOCC5)ncc4Cl)cc3C2=O)c1 [Example 3-P2]	0.945

A = COc1cc(F)cc([C@@H](CO)NC(=O)[C@@H](C)N2CCc3sc(-c4nc(Nc5ccnn5C)ncc4C)cc3C2=O)c1 [Example 10-P2]
B = COc1cc(F)cc([C@@H](CO)NC(=O)[C@@H](C)N2CCc3sc(-c4nc(N[C@@H](C)CO)ncc4Cl)cc3C2=O)c1 [Example 12]
C = COc1cc(F)cc([C@@H](CO)NC(=O)[C@@H](C)N2CCc3sc(-c4nc(NC5CCOCC5)ncc4Cl)cc3C2=O)c1 [Example 9-P2]
QUERY: List the 3 entries from lowest half-life to highest half-life value. A ranking is expressed here by listing the labels in the requested order.
RESULT: A, B, C

----------
Tested on: Colo205 cells
Test: In vitro proliferation inhibition test on Colo205 tumor cells (CellTiter-Glo)
Format: cell-based
Settings: Homo sapiens, COLO 205, 72 h; Colo205 cell proliferation, 3 days of culture, CTG
pIC50: −log10 of the molar value.
quantity measured: pIC50

Guide cases for pIC50, answers given:
COc1cc(F)cc([C@@H](CO)NC(=O)[C@@H](C)N2CCc3sc(-c4ccnc(Nc5ccnn5C)n4)cc3C2=O)c1	7.31
C[C@H](C(=O)N[C@H](CO)c1cccc(Cl)c1)N1CCc2sc(-c3nc(NC4CCOCC4)ncc3Cl)cc2C1=O [Example 4-P2]	7.54
COc1cc(F)cc([C@@H](CO)NC(=O)[C@@H](C)N2CCc3sc(-c4ccnc(NC5CCOCC5)n4)cc3C2=O)c1	7.80

1 = Cc1cccc([C@@H](CO)NC(=O)CN2CCc3sc(-c4nc(Nc5ccnn5C)ncc4C)cc3C2=O)c1
2 = COc1cc(F)cc([C@@H](CO)NC(=O)[C@@H](C)N2CCc3sc(-c4nc(Nc5ccnn5C)ncc4Cl)cc3C2=O)c1
QUERY: Param pair: 1 , 2 . Output: the one whose pIC50 is numerically greater. Bench note: the answer is the label of the chosen record.
RESULT: 2

----------
Molecular target: ERK1 (Homo sapiens, UniProt P27361)
Sequence (P27361 whole entry): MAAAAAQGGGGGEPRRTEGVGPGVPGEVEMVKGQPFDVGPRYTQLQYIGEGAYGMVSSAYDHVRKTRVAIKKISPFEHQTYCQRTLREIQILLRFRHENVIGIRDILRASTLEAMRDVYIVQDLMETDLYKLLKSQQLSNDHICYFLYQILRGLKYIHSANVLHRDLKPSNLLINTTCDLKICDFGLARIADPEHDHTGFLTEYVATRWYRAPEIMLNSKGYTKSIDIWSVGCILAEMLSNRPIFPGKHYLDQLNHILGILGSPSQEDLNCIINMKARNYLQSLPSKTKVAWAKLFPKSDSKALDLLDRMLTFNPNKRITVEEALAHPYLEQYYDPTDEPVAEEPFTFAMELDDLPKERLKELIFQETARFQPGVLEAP
pIC50: −log10 of the molar value.
quantity measured: pIC50

Examples with their reported pIC50 follow.
COc1cc(F)cc([C@@H](CO)NC(=O)[C@@H](C)N2CCc3sc(-c4nc(Nc5ccnn5C)ncc4C)cc3C2=O)c1 [Example 10-P2]	7.49
COc1cc(F)cc([C@@H](CO)NC(=O)[C@@H](C)N2CCc3sc(-c4nc(Nc5ccnn5C)ncc4Cl)cc3C2=O)c1	7.57

I = COc1cc(F)cc([C@@H](CO)NC(=O)[C@@H](C)N2CCc3sc(-c4nc(N[C@@H](C)CO)ncc4Cl)cc3C2=O)c1
II = COc1cc(F)cc([C@@H](CO)NC(=O)[C@@H](C)N2CCc3sc(-c4ccnc(Nc5ccnn5C)n4)cc3C2=O)c1
QUERY: Which entry shows the lesser value of pIC50 here, I or II ? Use the label to indicate which entry you chose.
RESULT: I
